Kindly state Ki for each of the entries shown.
- experimental-system: UniProt:O96935
- Sequence (O96935 1-1085): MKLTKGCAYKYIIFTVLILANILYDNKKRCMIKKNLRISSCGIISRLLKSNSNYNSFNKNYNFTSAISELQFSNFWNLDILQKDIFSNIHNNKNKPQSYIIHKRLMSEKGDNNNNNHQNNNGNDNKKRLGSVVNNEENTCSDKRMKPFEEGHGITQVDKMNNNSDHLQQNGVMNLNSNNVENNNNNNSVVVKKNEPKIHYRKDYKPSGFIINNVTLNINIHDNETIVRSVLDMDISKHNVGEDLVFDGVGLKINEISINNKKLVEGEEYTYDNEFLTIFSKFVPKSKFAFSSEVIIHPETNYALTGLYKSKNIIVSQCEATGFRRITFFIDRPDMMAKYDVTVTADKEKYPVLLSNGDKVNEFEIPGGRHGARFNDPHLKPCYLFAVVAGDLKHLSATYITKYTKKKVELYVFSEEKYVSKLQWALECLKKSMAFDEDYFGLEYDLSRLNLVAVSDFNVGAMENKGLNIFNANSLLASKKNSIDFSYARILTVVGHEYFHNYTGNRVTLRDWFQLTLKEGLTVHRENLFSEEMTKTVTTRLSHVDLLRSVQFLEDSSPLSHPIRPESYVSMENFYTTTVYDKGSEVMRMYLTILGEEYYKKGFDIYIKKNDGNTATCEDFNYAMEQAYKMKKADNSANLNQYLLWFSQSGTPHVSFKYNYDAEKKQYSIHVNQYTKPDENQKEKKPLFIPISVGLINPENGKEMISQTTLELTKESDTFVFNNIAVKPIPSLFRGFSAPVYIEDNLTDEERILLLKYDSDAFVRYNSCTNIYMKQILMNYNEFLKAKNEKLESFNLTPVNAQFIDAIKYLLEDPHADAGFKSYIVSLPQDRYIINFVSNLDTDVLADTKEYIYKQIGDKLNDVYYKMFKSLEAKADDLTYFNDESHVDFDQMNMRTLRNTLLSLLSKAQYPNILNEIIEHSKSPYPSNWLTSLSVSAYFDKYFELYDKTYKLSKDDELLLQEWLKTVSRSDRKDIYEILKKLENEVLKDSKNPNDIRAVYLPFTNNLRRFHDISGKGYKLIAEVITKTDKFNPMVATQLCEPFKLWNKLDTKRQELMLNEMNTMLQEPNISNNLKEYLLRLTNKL
One number for each entry, in µM.

CC(CP(=O)(O)C(N)c1ccccc1)C(=O)O (centres unmarked) : 30

Need Ki, item CC(C)CC(CP(=O)(O)C(N)c1ccccc1)C(=O)O (centres unmarked)
2.3
